test system: MCF7 breast; experiment: NCI tumour cell line growth inhibition, 48 h
quantity measured: TGI

According to the records, this molecule C=C1CC(C)(COc2cc(=O)oc3ccccc23)OC1=O (configuration not stated) displays TGI of 4.28 µM

Input `CC(C)OC(=O)NNc1cccc(Cl)c1` . Output TGI: > 100 µM

----------
system: NCI/ADR-RES ovarian; experiment: NCI tumour cell line growth inhibition, 48 h
quantity measured: TGI

- compound: "CC(C)CC(NC=O)C(=O)NC(Cc1ccccc1)NC(=O)CNC(=O)C(C)NC(=O)C(N)Cc1ccc(O)cc1 (stereo unspecified)"
  quantity measured: "TGI"
  experimental value: "> 100 µM"
- compound: "O=C1/C(=C\\c2ccccc2)CN(C(=O)c2ccccc2)C/C1=C\\c1ccccc1"
  quantity measured: "TGI"
  experimental value: "37.6 µM"
- compound: "CC(C)OC(=O)NNc1cccc(Cl)c1"
  quantity measured: "TGI"
  experimental value: "> 100 µM"
- compound: "O=C1CCCCC1C(O)(C(F)(F)F)C(F)(F)Cl (stereo unspecified)"
  quantity measured: "TGI"
  experimental value: "> 10 µM"
- compound: "COC(=O)CC(CNC(=O)OCc1ccccc1)OCc1ccc(OC)cc1 (stereo unspecified)"
  quantity measured: "TGI"
  experimental value: "> 100 µM"

Kindly note the recorded TGI for `C/C(=C\CNc1ncnc2c1ncn2CCC(=O)OC(C)(C)C)CO` , which is > 100 µM

Per the record, CCCCCCCCCCCCCCCC(=O)Nc1ccn(C2CCC(COP(=O)(O)OCC3OC(n4cc(F)c(=O)[nH]c4=O)CC3OC(C)=O)O2)c(=O)n1 (stereo unspecified) has TGI of > 100 µM

Entry `COC(=O)[C@]1(C)CCC[C@]2(C)[C@@H](CCC(=O)C(C)C)[C@]3(C=O)O[C@@H]3C[C@H]21` ; TGI = 90.4 µM

// recorded TGI for `O=C(c1cccs1)c1nc2cc(Cl)ccc2[n+]([O-])c1C(F)(F)F` : > 100 µM

Field TGI (entry `Cc1ccc(S(=O)(=O)ON2C(=O)c3c(N)c(C#N)c(-c4ccccc4)c(-c4ccccc4)c3C2=O)cc1` ) reads 62.4 µM

// field: TGI; key: `CC(C)OCc1cc(CN2CCN(c3cccc(Cl)c3)CC2)c(O)c2ncccc12` ; value = 10.6 µM

----------
test system: T-47D breast; assay: NCI tumour cell line growth inhibition, 48 h
quantity measured: TGI

Below, 3 compounds whose answers are already recorded.
- compound: "Oc1ccc(Cc2ccc(O)c(C3CC(c4ccc(Cl)cc4)=NN3)c2)cc1C1CC(c2ccc(Cl)cc2)=NN1 (stereo unspecified)"
  experimental value: "> 39.7 µM"
- compound: "O=C1CCCCC1C(O)(C(F)(F)F)C(F)(F)Cl (stereo unspecified)"
  experimental value: "> 10 µM"
- compound: "C=CC(OC(=O)C(C)C)c1ccc(OC(=O)C(C)C)cc1 (stereo unspecified)"
  experimental value: "69.8 µM"

Entry `CC(C)(Oc1ccc2c(=O)cc(-c3ccccc3)oc2c1)C(=O)N1CCN(c2ccccc2)CC1` , TGI reported as > 10 µM

For CCC(C)CC(C)C(=O)c1c(O)ccn(O)c1=O (stereo unspecified) the compound record lists TGI as 76.9 µM

The reported value for CC1(C)OC2C(CO)OC(n3ccc(N)nc3=O)C2O1 (stereo unspecified) in terms of TGI is > 100 µM

# compound `FC(F)(F)c1cc(-c2ncn(/C=C\c3nnco3)n2)cc(C(F)(F)F)c1` ; its TGI = > 41.5 µM

----------
system: M14 melanoma; test: NCI tumour cell line growth inhibition, 48 h
The entries below are paired with their reported TGI.

- molecule: "N#Cc1ccc(C(C2C(=O)NC(=O)NC2=O)C2C(=O)NC(=O)NC2=O)cc1"
  subject of test: "M14 melanoma"
  TGI: "> 100 µM"
- molecule: "C/C(=C\\CNc1ncnc2c1ncn2CCC(=O)OC(C)(C)C)CO"
  subject of test: "M14 melanoma"
  TGI: "> 100 µM"

Kindly consider the entry below.
# TGI of COC(=O)CC(CNC(=O)OCc1ccccc1)OCc1ccc(OC)cc1 (stereo not drawn) = > 100 µM

----------
tested on: PC-3 prostate; experiment: NCI tumour cell line growth inhibition, 48 h
quantity measured: TGI (µM)
Just the number in µM, nothing appended.

- compound: "CCOC(=O)C1=CNC(C(=O)OCC)C1c1cccn1-c1ccccc1 (stereo not drawn)"
  TGI [µM]: 71.3
- compound: "NCCCNc1nc2ccc(Cl)cc2c2c(=O)c3cc(F)ccc3sc12"
  TGI [µM]: 14.2
- compound: "COc1ccc2c(c1)-c1nc(=O)n(CCCN(C)C)c3ccc([N+](=O)[O-])c(c13)N2"
  TGI [µM]: 20.9
- compound: "Cc1[nH]c2nc3c(ncn3COCCO)c(=O)n2c1C(c1ccccc1)(c1ccccc1)c1ccccc1"
  TGI [µM]: 26

Attention now shifts to the item below.
Consider CC(=O)OCC1OC(OC(C)=O)C(Nc2ncc(-c3ccc(C)cc3)s2)C(OC(C)=O)C1OC(C)=O (stereo not drawn) . Its measured TGI is 45.3

----------
Property: TGI; scope: individual compounds
test system: HCC-2998 colon; test: NCI tumour cell line growth inhibition, 48 h

Take a look at these entries with their results.
- compound: "O=C1CCSc2nc(-c3ccc4c(c3)OCO4)nn21"
  TGI: "> 10 µM"
- compound: "NC(=N\\N=C/c1ccc(Cl)cc1Cl)/C(N)=N\\N=C/c1ccc(Cl)cc1Cl"
  TGI: "> 100 µM"
- compound: "CN1C(=O)CN2C(Cl)(Cl)C2(c2ccccc2)c2cc(Cl)ccc21 (centres undefined)"
  TGI: "> 100 µM"

Turning now to a further record.
The compound listed as C=CCC12CCC(=O)[C@@]1(C)CC=C(O)C2=O (some centres undefined) has a reported TGI of > 100 µM

----------
Catalogue of TGI values
test system: SNB-75 CNS; test: NCI tumour cell line growth inhibition, 48 h

- smiles text: "O=C(O)CNCCc1ccccc1"
  subject of test: "SNB-75 CNS"
  TGI: "> 100 µM"
- smiles text: "O=C1NC(=O)C(c2ccccc2)=C1Nc1ccccc1"
  subject of test: "SNB-75 CNS"
  TGI: "> 25 µM"

response.value for `Cn1nc(-c2ccccc2)c2c(-c3ccccc3)c3cc(Cl)ccc3nc21` (field: TGI) = > 100 µM

----------
system: LOX IMVI melanoma; test: NCI tumour cell line growth inhibition, 48 h
quantity measured: TGI

- compound: "O=c1nc(N2CCCC2)nc(N2CCCC2)s1"
  TGI: "> 100 µM"
- compound: "CCN1C(=O)N(CC)C2C1NC(=S)N2/N=C/C=C/c1ccccc1OC (centres undefined)"
  TGI: "> 100 µM"
- compound: "CN1CCN(c2ccc3[nH]c(C4=C(O)C(=O)[C@@H]5C(=C4O)N=C(CO)N5C)nc3n2)CC1"
  TGI: "> 100 µM"
- compound: "CCC(C)(C)[C@H](NC(=O)[C@H]1CCCCN1C)C(=O)N(C)[C@H](C[C@@H](OC(C)=O)c1nc(C(=O)N[C@@H](Cc2ccccc2)C[C@H](C)C(=O)O)cs1)C(C)C"
  TGI: "> 16.7 µM"
- compound: "O=C1NC(=O)C(c2ccccc2)=C1Nc1ccccc1"
  TGI: "> 25 µM"

Form: item CCC(c1ccc(OC)cc1)C1NC(=S)NC1=O (centres undefined) ; test system LOX IMVI melanoma; TGI: > 50 µM

LOX IMVI melanoma data for `O=c1oc2ccc3ccccc3c2cc1-c1cn2c(n1)sc1ccccc12` ; its TGI: > 100 µM

Assay LOX IMVI melanoma, sample CC(C)COP(C)(=O)C(N)(C(F)(F)F)C(F)(F)F (centres undefined) , TGI read: > 100 µM

----------
tested on: T-47D breast; assay: NCI tumour cell line growth inhibition, 48 h
quantity measured: TGI

Guide cases for TGI, answers given:
- smiles text: "NC(=O)CCc1ccccc1Oc1nccc(-c2c(-c3ccc(F)cc3)ncn2C2CCNCC2)n1"
  TGI: "> 25 µM"
- smiles text: "c1ccc(-c2cc(-c3ccncc3)cc(-c3ccncc3)n2)cc1"
  TGI: "> 100 µM"

Now for another entry.
Measured TGI of `CCc1ccc(Nc2cc(=O)n(C)c(SCc3ccccc3)n2)cc1` : > 100 µM

----------
test system: SK-MEL-28 melanoma; test: NCI tumour cell line growth inhibition, 48 h
Collected TGI values appear next to each entry.

Tested on SK-MEL-28 melanoma: `Cc1ccc(NC(=O)c2nc(S(C)(=O)=O)oc2-c2ccc(F)cc2)cc1Nc1ccc2ncn(C)c(=O)c2c1` . Observed TGI: 3.4 µM

Param item: `COc1cc2c(cc1OCCCCn1c(-c3cccs3)nc3ccccc31)N=C[C@@H]1CCCN1C2=O` ; param system: SK-MEL-28 melanoma; output TGI: 3.27 µM

Recorded TGI for COC(=O)CC(CNC(=O)OCc1ccccc1)OCc1ccc(OC)cc1 (configuration not stated) on SK-MEL-28 melanoma was > 100 µM

Simply: COc1ccccc1N1C(=O)CSC1c1cc(OC)c(OC)c(OC)c1 (configuration not stated) , SK-MEL-28 melanoma, TGI = > 100 µM

Readout TGI for `O=C([O-])CCc1ccccc1.O=C([O-])CCc1ccccc1.O=C([O-])CCc1ccccc1.O=C([O-])CCc1ccccc1.[Mo+2].[Mo+2]` , test system SK-MEL-28 melanoma, was > 100 µM
